A collection of molecules and their measured Percent Control
- Tested on: RSK2(Kin.Dom.1-N-terminal)
- Construct: gene RPS6KA3
- condition: Compound Concentration (nM):1000;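 further: KINOMEscan scanMAX binding as percent activity remaining versus control; lower means stronger binding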
test readout: Percent Control (%)

[[record]]
molecule = "CC(C)COC(=O)c1ccc2c(c1)/C(=C/Nc1ccc(S(N)(=O)=O)cc1)C(=O)N2 [GW416981X]"
test_readout = "Percent Control"
endpoint_value = 36

[[record]]
molecule = "NS(=O)(=O)c1ccc(N/N=C2\\C(=O)Nc3ccc(-c4cnco4)cc32)cc1 [GW276655]"
test_readout = "Percent Control"
endpoint_value = 79

[[record]]
molecule = "COc1ccc2[nH]c3c4[nH]c5ccc(OC)cc5c4c4c(c3c2c1)C(=O)NC4=O [GW296115X]"
test_readout = "Percent Control"
endpoint_value = 21

[[record]]
molecule = "COc1cc(/C=N/Nc2ncnc3[nH]ncc23)ccc1O [GW578748X]"
test_readout = "Percent Control"
endpoint_value = 72

[[record]]
molecule = "O=C(Nc1n[nH]c2nc(-c3ccc(O)cc3)c(Br)cc12)C1CC1 [SB-725317]"
test_readout = "Percent Control"
endpoint_value = 65


----------
- Tested on: ACVR2A
- condition: Compound Concentration (nM):1000
test readout: Percent Control (%)

[[record]]
molecule = "CN(C)CCNC(=O)Nc1ccc(N(C)c2ccnc(Nc3ccc(CS(C)(=O)=O)cc3)n2)cc1.Cl [GW830900A]"
endpoint_value = 79

[[record]]
molecule = "NS(=O)(=O)c1ccc(N/N=C2\\C(=O)Nc3ccc(Cl)cc32)cc1 [GW280670X]"
endpoint_value = 100

[[record]]
molecule = "O=C(Nc1n[nH]c2nc(-c3ccc(O)cc3)c(Br)cc12)C1CC1"
endpoint_value = 75

[[record]]
molecule = "COC(=O)Nc1nc2ccc(Oc3ccc(NC(=O)Nc4cc(C(F)(F)F)ccc4F)cc3)cc2s1.Cl [GW693917A]"
endpoint_value = 100

[[record]]
molecule = "CCS(=O)(=O)c1ccc(OC)c(Nc2ncc(-c3cccc(OC)c3)o2)c1 [GW580509X]"
endpoint_value = 100

[[record]]
molecule = "COc1ccccc1-c1cc(/C=C2\\C(=O)Nc3ncc(Br)cc32)cc(Br)c1O [GW442130X]"
endpoint_value = 100

[[record]]
molecule = "CN1CCN(C(=O)c2ccc(NC(=O)Nc3ccc(N(C)c4ccnc(Nc5ccc(CS(C)(=O)=O)cc5)n4)cc3)cc2)CC1.Cl [GW830263A]"
endpoint_value = 78

[[record]]
molecule = "COc1cc2ncnc(Nc3ccc4c(cnn4Cc4ccccc4)c3)c2cc1OC.Cl [GW282449A]"
endpoint_value = 100


----------
- System: ABL1(F317I)-phosphorylated
- condition: Compound Concentration (nM):1000
Param label: returns t when Percent Control < 80%, returns f otherwise, including exact equality.

[[record]]
molecule = "Cl.c1ccc(Cc2nc3ccc(Nc4ncnc5ccccc45)cc3[nH]2)cc1 [GR269666A]"
label_value = "f"

[[record]]
molecule = "COc1ccc2cc(-c3c(-c4ccncc4)nc(-c4ccc(S(C)(=O)=O)cc4C)n3C)ccc2c1"
label_value = "t"

[[record]]
molecule = "COc1cc(C=NNc2ncnc3c2cnn3-c2ccccc2)ccc1O [GW513184X]"
label_value = "f"

[[record]]
molecule = "COc1cc(N2CCN(C(C)C)CC2)ccc1Nc1nc(Nc2ccc(F)cc2C(=O)NC[C@@H](O)CO)c2cc[nH]c2n1 [GSK1392956A]"
label_value = "f"

[[record]]
molecule = "CCS(=O)(=O)c1ccc(OC)c(Nc2ncc(-c3cccc(F)c3)o2)c1 [GW621970X]"
label_value = "t"


----------
- Tested on: NIK
- Construct: gene MAP3K14
- condition: Compound Concentration (nM):1000
test readout: Percent Control

[[record]]
molecule = "CC1=C(C(=O)Nc2ccc3[nH]ncc3c2)C(c2ccc3ccccc3c2)CC(=O)N1 (centres unmarked) [GSK270822A]"
endpoint_value = "82%"

[[record]]
molecule = "COc1ccc2c(-c3ccnc(Nc4cccc(OC(F)(F)F)c4)n3)cnn2n1 [GW810372X]"
endpoint_value = "96%"

[[record]]
molecule = "Cl.O=C(Nc1ccc(Oc2ccc3[nH]c(NC(=O)c4ccco4)nc3c2)cc1)Nc1cc(C(F)(F)F)ccc1F [GW683134A]"
endpoint_value = "100%"

[[record]]
molecule = "C[C@@H](Oc1cc(-n2cnc3ccc(OC4CCN(C)CC4)cc32)sc1C(N)=O)c1ccccc1Cl [GSK579289A]"
endpoint_value = "82%"

[[record]]
molecule = "Cc1cc(O)cc(C)c1/C=C/c1cncc(C(N)=O)c1 [GW435821X]"
endpoint_value = "100%"

[[record]]
molecule = "Cl.O=S1CCN(Cc2ccc(-c3ccc4ncnc(Nc5ccc(OCc6ccccc6)c(F)c5)c4c3)o2)CC1 [GW576924A]"
endpoint_value = "100%"

[[record]]
molecule = "Cl.c1ccc(Cc2nc3ccc(Nc4ncnc5ccccc45)cc3[nH]2)cc1 [GR269666A]"
endpoint_value = "100%"

[[record]]
molecule = "CC1=C(C(=O)Nc2ccc3[nH]ncc3c2)C(c2ccc(Cl)c(Cl)c2)CC(=O)N1 (centres unmarked) [GSK299115A]"
endpoint_value = "76%"


----------
- Tested on: DMPK
- condition: Compound Concentration (nM):1000
test readout: Percent Control (%)

[[record]]
molecule = "COc1cc(/C=N/Nc2ncnc3[nH]ncc23)ccc1O [GW578748X]"
endpoint_value = 100

[[record]]
molecule = "COc1cc(N2CCN(C(C)C)CC2)ccc1Nc1nc(Nc2ccc(F)cc2C(=O)NC[C@@H](O)CO)c2cc[nH]c2n1 [GSK1392956A]"
endpoint_value = 100

[[record]]
molecule = "COc1ccc(COc2ccc(Cc3cnc(N)nc3N)cc2OC)cc1 [GW632580X]"
endpoint_value = 100

[[record]]
molecule = "COc1ccccc1-c1cc(/C=C2\\C(=O)Nc3ncc(Br)cc32)cc(Br)c1O [GW442130X]"
endpoint_value = 100

[[record]]
molecule = "CN(C)c1cc2c(Nc3ccc4c(cnn4Cc4ccccc4)c3)ncnc2cn1 [GW282974X]"
endpoint_value = 95

[[record]]
molecule = "CCn1c(-c2nonc2N)nc2c(C#CC(C)(C)O)nc(OCCNC)cc21.Cl [GSK949675]"
endpoint_value = 100

[[record]]
molecule = "COC(=O)Nc1nc2ccc(Oc3ccc(NC(=O)Nc4cc(C(F)(F)F)ccc4F)cc3)cc2s1.Cl [GW693917A]"
endpoint_value = 100

[[record]]
molecule = "COc1cc(C)c(N(C)C(=O)CN(C)C)cc1Nc1nc(Nc2cccc(F)c2C(N)=O)c2cc[nH]c2n1 [GSK2219385]"
endpoint_value = 84

[[record]]
molecule = "Cl.O=C(Nc1ccc(Oc2ccc3[nH]c(NC(=O)c4ccco4)nc3c2)cc1)Nc1cc(C(F)(F)F)ccc1F [GW683134A]"
endpoint_value = 100

[[record]]
molecule = "Cl.O=C(O[C@H]1CN[C@H](C#Cc2cc3ncnc(Nc4ccc5c(cnn5Cc5ccccc5)c4)c3s2)C1)N1CCOCC1 [GSK200398A]"
endpoint_value = 100

[[record]]
molecule = "Cl.O=C(Nc1ccc(Oc2ccc3[nH]c(NC(=O)c4ccccc4)nc3c2)cc1)Nc1cc(C(F)(F)F)ccc1F [GW709042A]"
endpoint_value = 100

[[record]]
molecule = "O=C(Nc1n[nH]c2nc(-c3ccc(O)cc3)c(Br)cc12)C1CC1 [SB-725317]"
endpoint_value = 23

[[record]]
molecule = "Cc1cc(O)cc(C)c1/C=C/c1cncc(C(N)=O)c1 [GW435821X]"
endpoint_value = 100

[[record]]
molecule = "COc1ccc2c(-c3ccnc(Nc4cccc(OC(F)(F)F)c4)n3)cnn2n1 [GW810372X]"
endpoint_value = 100

[[record]]
molecule = "NS(=O)(=O)c1ccc(N/N=C2\\C(=O)Nc3ccc(-c4cnco4)cc32)cc1 [GW276655]"
endpoint_value = 72

[[record]]
molecule = "NS(=O)(=O)c1ccc(Nc2ncc(-c3ccccc3)o2)cc1 [GW572399X]"
endpoint_value = 100

[[record]]
molecule = "CC1=C(C(=O)Nc2ccc3[nH]ncc3c2)C(c2ccc(Cl)c(Cl)c2)CC(=O)N1 (centres unmarked) [GSK299115A]"
endpoint_value = 100


----------
- Test system: TRKC
- Construct: gene NTRK3
- condition: Compound Concentration (nM):1000
test readout: Percent Control (%)

[[record]]
molecule = "COC(=O)Nc1nc2ccc(Oc3ccc(NC(=O)Nc4cc(C(F)(F)F)ccc4F)cc3)cc2s1.Cl [GW693917A]"
test_readout = "Percent Control"
endpoint_value = 4.5

[[record]]
molecule = "COc1ccccc1-c1cc(/C=C2\\C(=O)Nc3ncc(Br)cc32)cc(Br)c1O [GW442130X]"
test_readout = "Percent Control"
endpoint_value = 44

[[record]]
molecule = "Cc1cc(O)cc(C)c1/C=C/c1cncc(C(N)=O)c1 [GW435821X]"
test_readout = "Percent Control"
endpoint_value = 100

[[record]]
molecule = "NS(=O)(=O)c1ccc(N/N=C2\\C(=O)Nc3ccc(Cl)cc32)cc1 [GW280670X]"
test_readout = "Percent Control"
endpoint_value = 89

[[record]]
molecule = "CCS(=O)(=O)c1ccc(OC)c(Nc2ncc(-c3cccc(OC)c3)o2)c1 [GW580509X]"
test_readout = "Percent Control"
endpoint_value = 67

[[record]]
molecule = "O=C1Nc2ccc(C(=O)c3ccco3)cc2C1=Cc1cc(Cl)c(O)c(Cl)c1 [GW406108X]"
test_readout = "Percent Control"
endpoint_value = 61

[[record]]
molecule = "Cl.O=S1CCN(Cc2ccc(-c3ccc4ncnc(Nc5ccc(OCc6ccccc6)c(F)c5)c4c3)o2)CC1 [GW576924A]"
test_readout = "Percent Control"
endpoint_value = 100

[[record]]
molecule = "Cl.O=C(Nc1ccc(Oc2ccc3[nH]c(NC(=O)c4ccccc4)nc3c2)cc1)Nc1cc(C(F)(F)F)ccc1F [GW709042A]"
test_readout = "Percent Control"
endpoint_value = 29

[[record]]
molecule = "COc1cc(N2CCN(C(C)C)CC2)ccc1Nc1nc(Nc2ccc(F)cc2C(=O)NC[C@@H](O)CO)c2cc[nH]c2n1 [GSK1392956A]"
test_readout = "Percent Control"
endpoint_value = 89

[[record]]
molecule = "Cl.O=C(O[C@H]1CN[C@H](C#Cc2cc3ncnc(Nc4ccc5c(cnn5Cc5ccccc5)c4)c3s2)C1)N1CCOCC1 [GSK200398A]"
test_readout = "Percent Control"
endpoint_value = 95

[[record]]
molecule = "CC1=C(C(=O)Nc2ccc3[nH]ncc3c2)C(c2ccc3ccccc3c2)CC(=O)N1 (centres unmarked) [GSK270822A]"
test_readout = "Percent Control"
endpoint_value = 63

[[record]]
molecule = "C/C(Nc1ccc(S(N)(=O)=O)cc1)=C1/C(=O)Nc2ccccc21 [GW335962X]"
test_readout = "Percent Control"
endpoint_value = 42

[[record]]
molecule = "COc1cc2ncn(-c3cc(O[C@H](C)c4ccccc4Cl)c(C(N)=O)s3)c2cc1OC [GSK237701A]"
test_readout = "Percent Control"
endpoint_value = 59

[[record]]
molecule = "COc1cccc(-c2c[nH]c3c(N/N=C/c4ccncc4)ncnc23)c1 [GW814408X]"
test_readout = "Percent Control"
endpoint_value = 100

[[record]]
molecule = "NS(=O)(=O)c1ccc(N/N=C2\\C(=O)Nc3ccc(-c4cnco4)cc32)cc1"
test_readout = "Percent Control"
endpoint_value = 38

[[record]]
molecule = "Cl.O=C(Nc1ccc(Oc2ccc3[nH]c(NC(=O)c4ccco4)nc3c2)cc1)Nc1cc(C(F)(F)F)ccc1F [GW683134A]"
test_readout = "Percent Control"
endpoint_value = 3

[[record]]
molecule = "O=C(Nc1n[nH]c2nc(-c3ccc(O)cc3)c(Br)cc12)C1CC1"
test_readout = "Percent Control"
endpoint_value = 100

